test: Ex vivo biodistribution in PC-3 tumor-bearing mice; conditions: male, NRG, mouse, testes, iv, total radioactivity, Biodistribution Testes Mean, 1 h post-injection, mice bearing PC-3 tumor xenografts, n = 4
Numbered stars: 1 amine (or outer) side, 2 acyl side, 3 side chain; on linkers, the order of the positions; unused ones are H or OH. Square brackets hold non-standard residues; d marks the D form. Peptide text beside a SMILES is read from it. * marks the point of attachment. DOTA = O=C(O)CN1CCN(CC(=O)O)CCN(CC(=O)*)CCN(CC(=O)O)CC1; Leuψ(CH2N)ThzNH2 = CC(C)C[C@@H](CN1CSC[C@H]1C(N)=O)N*; X1 = O=C(CN1CCC(N[*:1])CC1)[*:2]
Assign tissue uptake at 1 h to each entry below.
Give bare numbers, in %ID/g.

Look up tissue uptake at 1 h for the entries below, preserving their order.
1. CC(C)C[C@@H](CN1CSC[C@H]1C(N)=O)NC(=O)[C@H](Cc1c[nH]cn1)NC(=O)CNC(=O)[C@@H](NC(=O)[C@H](C)NC(=O)[C@H](Cc1c[nH]c2ccccc12)NC(=O)[C@H](Cc1c[nH]cn1)NC(=O)[C@@H](Cc1ccccc1)NC(=O)CN1CCC(NC(=O)CN2CCN(CC(=O)O)CCN(CC(=O)O)CCN(CC(=O)O)CC2)CC1)C(C)C [^68Ga-LW01102, metal not drawn] ({DOTA}-[X1][dF]HWAVGH-{Leuψ(CH2N)ThzNH2})
2. CC(C)C[C@H](NC(=O)[C@H](Cc1c[nH]cn1)NC(=O)CNC(=O)[C@@H](NC(=O)[C@H](C)NC(=O)[C@H](Cc1c[nH]c2ccccc12)NC(=O)[C@H](CCC(N)=O)NC(=O)[C@@H](Cc1ccccc1)NC(=O)CN1CCC(NC(=O)CN2CCN(CC(=O)O)CCN(CC(=O)O)CCN(CC(=O)O)CC2)CC1)C(C)C)C(=O)N1CSC[C@H]1C(N)=O [^68Ga-LW01025, metal not drawn]
3. CC(C)C[C@@H](CN1CSC[C@H]1C(N)=O)NC(=O)[C@H](Cc1c[nH]cn1)NC(=O)CNC(=O)[C@@H](NC(=O)[C@H](C)NC(=O)[C@H](Cc1c[nH]c2ccccc12)NC(=O)[C@H](CCC(N)=O)NC(=O)[C@@H](Cc1ccc2ccccc2c1)NC(=O)CN1CCC(NC(=O)CN2CCN(CC(=O)O)CCN(CC(=O)O)CCN(CC(=O)O)CC2)CC1)C(C)C [^68Ga-LW01059, metal not drawn]
4. CC(C)C[C@@H](CN1CCC[C@H]1C(N)=O)NC(=O)[C@H](Cc1c[nH]cn1)NC(=O)CN(C)C(=O)[C@@H](NC(=O)[C@H](C)NC(=O)[C@H](Cc1c[nH]c2ccccc12)NC(=O)[C@H](CCC(N)=O)NC(=O)[C@@H](Cc1ccccc1)NC(=O)CN1CCC(NC(=O)CN2CCN(CC(=O)O)CCN(CC(=O)O)CCN(CC(=O)O)CC2)CC1)C(C)C [^68Ga-LW02045, metal not drawn]

0.33
0.16
0.33
0.12

* * *

assay: Ex vivo biodistribution in PC-3 tumor-bearing mice; details: male, NRG, mouse, small intestine, iv, total radioactivity, Biodistribution Small Intestine Mean, 1 h post-injection, mice bearing PC-3 tumor xenografts, n = 4
metric: tissue uptake at 1 h (%ID/g)
Give bare numbers, in %ID/g.

Report tissue uptake at 1 h for CC(C)C[C@@H](CN1CSC[C@H]1C(N)=O)NC(=O)[C@H](Cc1c[nH]cn1)NC(=O)CNC(=O)[C@@H](NC(=O)[C@H](C)NC(=O)[C@H](Cc1c[nH]c2ccccc12)NC(=O)[C@H](CCC(N)=O)NC(=O)[C@@H](Cc1ccc2ccccc2c1)NC(=O)CN1CCC(NC(=O)CN2CCN(CC(=O)O)CCN(CC(=O)O)CCN(CC(=O)O)CC2)CC1)C(C)C [^68Ga-LW01059, metal not drawn] please.
2.15

* * *

test: Ex vivo biodistribution in PC-3 tumor-bearing mice; conditions: male, NRG, mouse, adrenal, iv, total radioactivity, Biodistribution Adrenal Mean, 1 h post-injection, mice bearing PC-3 tumor xenografts, n = 4
metric: tissue uptake at 1 h

molecule	readout.value
CC(C)C[C@@H](CN1CSC[C@H]1C(N)=O)NC(=O)[C@H](Cc1c[nH]cn1)NC(=O)CNC(=O)[C@@H](NC(=O)[C@H](C)NC(=O)[C@H](Cc1c[nH]c2ccccc12)NC(=O)[C@H](CCC(N)=O)NC(=O)[C@@H](Cc1ccccc1)NC(=O)CN1CCC(NC(=O)CN2CCN(CC(=O)O)CCN(CC(=O)O)CCN(CC(=O)O)CC2)CC1)C(C)C [^68Ga-LW01045, metal not drawn]	0.57 %ID/g

Shift focus to the following entry.
Looking for the measured tissue uptake at 1 h of CC(C)C[C@H](NC(=O)[C@H](Cc1c[nH]cn1)NC(=O)CNC(=O)[C@@H](NC(=O)[C@H](C)NC(=O)[C@H](Cc1c[nH]c2ccccc12)NC(=O)[C@H](CCC(N)=O)NC(=O)[C@@H](Cc1ccc2ccccc2c1)NC(=O)CN1CCC(NC(=O)CN2CCN(CC(=O)O)CCN(CC(=O)O)CCN(CC(=O)O)CC2)CC1)C(C)C)C(=O)N1CSC[C@H]1C(N)=O [^68Ga-LW01029, metal not drawn] , can you help?
0.82 %ID/g

* * *

Assignment: determine reported tissue uptake at 1 h for the given compounds.
test: in vivo; details: male, NRG, mouse, iv, total radioactivity, Biodistribution Small Intestine Mean
Numbered stars: 1 amine (or outer) side, 2 acyl side, 3 side chain; on linkers, the order of the positions; unused ones are H or OH. Square brackets hold non-standard residues; d marks the D form. Peptide text beside a SMILES is read from it. * marks the point of attachment. DOTA = O=C(O)CN1CCN(CC(=O)O)CCN(CC(=O)*)CCN(CC(=O)O)CC1; NMeH = CN[C@@H](Cc1c[nH]cn1)C(=O)O; X1 = O=C(CN1CCC(N[*:1])CC1)[*:2]; Tle = CC(C)(C)[C@H](N)C(=O)O; Thz = O=C(O)[C@@H]1CSCN1
Answers are plain numbers, in %ID/g.

Each compound below has a recorded value; state its tissue uptake at 1 h.
1. CC(C)C[C@H](NC(=O)[C@H](Cc1cnc[nH]1)N(C)C(=O)CNC(=O)[C@@H](NC(=O)[C@H](C)NC(=O)[C@H](Cc1c[nH]c2ccccc12)NC(=O)[C@H](Cc1c[nH]cn1)NC(=O)[C@@H](Cc1ccccc1)NC(=O)CN1CCC(NC(=O)CN2CCN(CC(=O)O)CCN(CC(=O)O)CCN(CC(=O)O)CC2)CC1)C(C)(C)C)C(=O)N1CSC[C@H]1C(N)=O [^68Ga-LW01142, metal not drawn] ({DOTA}-[X1][dF]HWA[Tle]G[NMeH]L[Thz]-NH2)
2. CC(C)C[C@H](NC(=O)[C@H](Cc1c[nH]cn1)N(C)C(=O)CNC(=O)[C@@H](NC(=O)[C@H](C)NC(=O)[C@H](Cc1c[nH]c2ccccc12)NC(=O)[C@H](CCC(N)=O)NC(=O)[C@@H](Cc1ccccc1)NC(=O)CN1CCC(NC(=O)CN2CCN(CC(=O)O)CCN(CC(=O)O)CCN(CC(=O)O)CC2)CC1)C(C)C)C(=O)N1CSC[C@H]1C(N)=O [^68Ga-LW01107, metal not drawn]

1. 1.7
2. 0.31

* * *

assay: in vivo; conditions: male, NRG, mouse, iv, total radioactivity, Biodistribution Liver Mean
Numbered stars: 1 amine (or outer) side, 2 acyl side, 3 side chain; on linkers, the order of the positions; unused ones are H or OH. Square brackets hold non-standard residues; d marks the D form. Peptide text beside a SMILES is read from it. * marks the point of attachment. DOTA = O=C(O)CN1CCN(CC(=O)O)CCN(CC(=O)*)CCN(CC(=O)O)CC1; Leuψ(CH2N)ThzNH2 = CC(C)C[C@@H](CN1CSC[C@H]1C(N)=O)N*; NMeH = CN[C@@H](Cc1c[nH]cn1)C(=O)O; X1 = O=C(CN1CCC(N[*:1])CC1)[*:2]; Tle = CC(C)(C)[C@H](N)C(=O)O; Thz = O=C(O)[C@@H]1CSCN1
Decide by tissue uptake at 1 h: equal to or exceeding 0.4 %ID/g means TRUE, less means FALSE.

Worked examples, 3 compounds total:
compound	assigned.class
CC(C)C[C@H](NC(=O)[C@H](Cc1cnc[nH]1)N(C)C(=O)CNC(=O)[C@@H](NC(=O)[C@H](C)NC(=O)[C@H](Cc1c[nH]c2ccccc12)NC(=O)[C@H](Cc1c[nH]cn1)NC(=O)[C@@H](Cc1ccccc1)NC(=O)CN1CCC(NC(=O)CN2CCN(CC(=O)O)CCN(CC(=O)O)CCN(CC(=O)O)CC2)CC1)C(C)(C)C)C(=O)N1CSC[C@H]1C(N)=O [^68Ga-LW01142, metal not drawn] ({DOTA}-[X1][dF]HWA[Tle]G[NMeH]L[Thz]-NH2)	TRUE
CC(C)C[C@H](NC(=O)[C@H](Cc1c[nH]cn1)NC(=O)CNC(=O)[C@@H](NC(=O)[C@H](C)NC(=O)[C@H](Cc1c[nH]c2ccccc12)NC(=O)[C@H](CCC(N)=O)NC(=O)[C@@H](Cc1ccccc1)NC(=O)CN1CCC(NC(=O)CN2CCN(CC(=O)O)CCN(CC(=O)O)CCN(CC(=O)O)CC2)CC1)C(C)(C)C)C(=O)N1CSC[C@H]1C(N)=O [^68Ga-LW01108, metal not drawn]	FALSE
CC(C)C[C@@H](CN1CSC[C@H]1C(N)=O)NC(=O)[C@H](Cc1c[nH]cn1)NC(=O)CNC(=O)[C@@H](NC(=O)[C@H](C)NC(=O)[C@H](Cc1c[nH]c2ccccc12)NC(=O)[C@H](CCC(N)=O)NC(=O)[C@@H](Cc1ccccc1)NC(=O)CN1CCC(NC(=O)CN2CCN(CC(=O)O)CCN(CC(=O)O)CCN(CC(=O)O)CC2)CC1)C(C)(C)C [^68Ga-LW01158, metal not drawn] ({DOTA}-[X1][dF]QWA[Tle]GH-{Leuψ(CH2N)ThzNH2})	TRUE

Then there is this compound:
Exam item: decide whether the reported tissue uptake at 1 h for CC(C)C[C@H](NC(=O)[C@H](Cc1c[nH]cn1)N(C)C(=O)CNC(=O)[C@@H](NC(=O)[C@H](C)NC(=O)[C@H](Cc1c[nH]c2ccccc12)NC(=O)[C@H](CCC(N)=O)NC(=O)[C@@H](Cc1ccccc1)NC(=O)CN1CCC(NC(=O)CN2CCN(CC(=O)O)CCN(CC(=O)O)CCN(CC(=O)O)CC2)CC1)C(C)C)C(=O)N1CSC[C@H]1C(N)=O [^68Ga-LW01107, metal not drawn] is at least 0.4 %ID/g.
FALSE
